pKi by entry:
target: UniProt P21728; assay: NIMH PDSP selectivity binding, hD1
Sequence (P21728 whole entry): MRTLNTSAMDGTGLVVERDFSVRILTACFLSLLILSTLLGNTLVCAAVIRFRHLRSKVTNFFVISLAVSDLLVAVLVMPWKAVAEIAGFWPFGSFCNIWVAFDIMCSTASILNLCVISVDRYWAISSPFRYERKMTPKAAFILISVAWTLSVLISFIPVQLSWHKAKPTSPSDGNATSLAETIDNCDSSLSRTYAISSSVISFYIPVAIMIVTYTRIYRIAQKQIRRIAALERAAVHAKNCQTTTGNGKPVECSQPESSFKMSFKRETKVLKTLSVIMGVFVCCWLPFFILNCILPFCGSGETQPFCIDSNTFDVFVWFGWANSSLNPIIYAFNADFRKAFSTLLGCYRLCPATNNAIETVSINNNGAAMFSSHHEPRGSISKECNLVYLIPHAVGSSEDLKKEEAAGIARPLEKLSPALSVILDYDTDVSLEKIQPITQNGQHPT
pKi: −log10 of the molar value. Structures can show the parent of a compound that is named as a salt.

compound: CCc1[nH]c2ccc(OC)cc2c1CCN(C)C [Compound B, maleate]
pKi: < 5.00
--
compound: COc1ccc2[nH]c(C)c(CCN(C)C)c2c1 [Compound A]
pKi: < 5.00

---

Counter-ions that a name gives are not always drawn.
The next entries give measured Ki for rD3 (Rattus norvegicus).
measurementLabel: Ki

compound: CCc1[nH]c2ccc(OC)cc2c1CCN(C)C [Compound B, maleate]
measurementLabel: Ki
observedValue: > 10 µM
//
compound: COc1ccc2[nH]c(C)c(CCN(C)C)c2c1
measurementLabel: Ki
observedValue: > 10 µM
